As shown below, each of these compounds has a reported Sucrose solution preference value.
# System: chronic unpredictable stress (CUS) model in rats
# Test details: Sucrose solution preference in CUS model in rats
# Assay type: in vivo
# Condition notes: 15 mg/kg intragastric daily, 7 days
# Protocol: The chronic unpredictable stress model is usually used as a depression model. The experimental method is as follows. […] On Day 21, 60 minutes after the final administration, a sucrose solution intake test was carried out and sleep electroencephalogram was recorded simultaneously. […]

Answered cases to consult:
[[record]]
compound = "CCOc1c(OC)c(Br)c2c3c1Oc1cc4c(cc1OC)CCN(C)C4Cc1ccc(cc1)Oc1cc(c(Br)cc1OC)CC3N(C)CC2 (centres unmarked) [Compound 5, 5,14-dibromo-7-ethoxy fangchinoline]"
test_system = "chronic unpredictable stress (CUS) model in rats"
data_value = "86.0 ± 3.5^##,$$ %"

[[record]]
compound = "COc1ccc2cc1Oc1ccc(cc1)CC1c3cc(c(OC)cc3CCN1C)Oc1c(OC(C)C)c(OC)cc3c1C(C2)N(C)CC3 (centres unmarked) [Compound 8, 7-isopropoxy fangchinoline]"
test_system = "chronic unpredictable stress (CUS) model in rats"
data_value = "84.7 ± 3.2^##,$ %"

[[record]]
compound = "CCCCOc1c(OC)cc2c3c1Oc1cc4c(cc1OC)CCN(C)C4Cc1ccc(cc1)Oc1cc(ccc1OC)CC3N(C)CC2 (centres unmarked) [Compound 7, 7-butoxy fangchinoline]"
test_system = "chronic unpredictable stress (CUS) model in rats"
data_value = "87.1 ± 3.5 %"

[[record]]
compound = "CCCOc1c(OC)cc2c3c1Oc1cc4c(cc1OC)CCN(C)C4Cc1ccc(cc1)Oc1cc(ccc1OC)CC3N(C)CC2 (centres unmarked) [Compound 6, 7-propoxy fangchinoline]"
test_system = "chronic unpredictable stress (CUS) model in rats"
data_value = "85.5 ± 3.6^##,$$ %"

[[record]]
compound = "COc1cc(Br)c2cc1Oc1ccc(cc1)CC1c3cc(c(OC)cc3CCN1C)Oc1c(OC)c(OC)c(Br)c3c1C(C2)N(C)CC3 (centres unmarked) [Compound 2, 5,14-dibromo-7-methoxy fangchinoline]"
test_system = "chronic unpredictable stress (CUS) model in rats"
data_value = "89.0 ± 4.6^##,$$ %"

[[record]]
compound = "CCOc1c(OC)cc2c3c1Oc1cc4c(cc1OC)CCN(C)C4Cc1ccc(cc1)Oc1cc(ccc1OC)CC3N(C)CC2 (centres unmarked) [Compound 3, 7-ethoxy fangchinoline]"
test_system = "chronic unpredictable stress (CUS) model in rats"
data_value = "93.6 ± 4.6^##,$$ %"

[[record]]
compound = "COc1ccc2cc1Oc1ccc(cc1)C[C@H]1c3cc(c(OC)cc3CCN1C)Oc1c(OC)c(OC)cc3c1[C@H](C2)N(C)CC3 [tetrandrine, reference compound]"
test_system = "chronic unpredictable stress (CUS) model in rats"
data_value = "52.9 ± 3.7%"


Notebook: COc1ccc2cc1Oc1ccc(cc1)CC1c3cc(c(OC)cc3CCN1C)Oc1c(OC)c(OC)c(Cl)c3c1C(C2)N(C)CC3 (centres unmarked) [Compound 1, 5-chloro-7-methoxy fangchinoline] , Sucrose solution preference read as 78.8 ± 4.0^##,$$ %

* * *

# Tested on: chronic unpredictable stress (CUS) model in rats
# Test details: Elevated plus-maze (EPM) anxiety test in CUS model in rats
# Format: in vivo
# Condition notes: 30 mg/kg intragastric daily
# Procedure: The chronic unpredictable stress model is usually used as a depression model. The experimental method is as follows. […] On Day 21, 60 minutes after the final administration, a sucrose solution intake test was carried out and sleep electroencephalogram was recorded simultaneously. […]
Outcome measure: Percentage of residence time in open arms

Below, 4 molecules whose answers are already recorded.
[[record]]
molecule = "COc1ccc2cc1Oc1ccc(cc1)CC1c3cc(c(OC)cc3CCN1C)Oc1c(OC)c(OC)c(Cl)c3c1C(C2)N(C)CC3 (centres unmarked)"
data_value = "60.6 ± 3.7^##,$$ %"

[[record]]
molecule = "COc1ccc2cc1Oc1ccc(cc1)C[C@H]1c3cc(c(OC)cc3CCN1C)Oc1c(OC)c(OC)cc3c1[C@H](C2)N(C)CC3 [tetrandrine, reference compound]"
data_value = "41.3 ± 3.0%"

[[record]]
molecule = "COc1cc(Br)c2cc1Oc1ccc(cc1)CC1c3cc(c(OC)cc3CCN1C)Oc1c(OC)c(OC)c(Br)c3c1C(C2)N(C)CC3 (centres unmarked)"
data_value = "64.5 ± 3.6^##,$$ %"

[[record]]
molecule = "CCCOc1c(OC)cc2c3c1Oc1cc4c(cc1OC)CCN(C)C4Cc1ccc(cc1)Oc1cc(ccc1OC)CC3N(C)CC2 (centres unmarked)"
data_value = "66.0 ± 4.2^##,$$ %"


Observed Percentage of residence time in open arms on chronic unpredictable stress (CUS) model in rats, entry CCOc1c(OC)cc2c3c1Oc1cc4c(cc1OC)CCN(C)C4Cc1ccc(cc1)Oc1cc(ccc1OC)CC3N(C)CC2 (centres unmarked) , equals 71.8 ± 3.2^##,$$ %

* * *

# System: chronic unpredictable stress (CUS) model in rats
# Test details: Sucrose solution preference in CUS model in rats
# Assay type: in vivo
# Condition notes: 7.5 mg/kg intragastric daily, 7 days
Outcome measure: Sucrose solution preference

[[record]]
compound = "COc1cc(Br)c2cc1Oc1ccc(cc1)CC1c3cc(c(OC)cc3CCN1C)Oc1c(OC)c(OC)c(Br)c3c1C(C2)N(C)CC3 (centres unmarked)"
test_system = "chronic unpredictable stress (CUS) model in rats"
data_value = "72.5 ± 3.0 %"

[[record]]
compound = "COc1ccc2cc1Oc1ccc(cc1)C[C@H]1c3cc(c(OC)cc3CCN1C)Oc1c(OC)c(OC)cc3c1[C@H](C2)N(C)CC3 [tetrandrine, reference compound]"
test_system = "chronic unpredictable stress (CUS) model in rats"
data_value = "55.4 ± 3.2%"

[[record]]
compound = "CCOc1c(OC)cc2c3c1Oc1cc4c(cc1OC)CCN(C)C4Cc1ccc(cc1)Oc1cc(ccc1OC)CC3N(C)CC2 (centres unmarked)"
test_system = "chronic unpredictable stress (CUS) model in rats"
data_value = "82.3 ± 3.3^##,$$ %"


Looking up CCCOc1c(OC)cc2c3c1Oc1cc4c(cc1OC)CCN(C)C4Cc1ccc(cc1)Oc1cc(ccc1OC)CC3N(C)CC2 (centres unmarked) , I found its Sucrose solution preference recorded as 79.45 ± 3.3 %

Sucrose solution preference reported for this compound COc1ccc2cc1Oc1ccc(cc1)CC1c3cc(c(OC)cc3CCN1C)Oc1c(OC(C)C)c(OC)cc3c1C(C2)N(C)CC3 (centres unmarked) : 80.5 ± 3.6 %

* * *

# Test system: chronic unpredictable stress (CUS) model in rats
# Test details: Autonomous movement in CUS model in rats
# Format: in vivo
# Condition notes: 15 mg/kg intragastric daily, 7 days
# Procedure: The chronic unpredictable stress model is usually used as a depression model. The experimental method is as follows. […] On Day 21, 60 minutes after the final administration, a sucrose solution intake test was carried out and sleep electroencephalogram was recorded simultaneously. […]
Outcome measure: Autonomous movement Distance

Recorded Autonomous movement Distance, per entry:
[[record]]
molecule = "CCOc1c(OC)cc2c3c1Oc1cc4c(cc1OC)CCN(C)C4Cc1ccc(cc1)Oc1cc(ccc1OC)CC3N(C)CC2 (stereo not drawn)"
test_system = "chronic unpredictable stress (CUS) model in rats"
outcome_measure = "Autonomous movement Distance"
data_value = "14409.83 ± 664.54^##,$$ mm"

[[record]]
molecule = "CCCOc1c(OC)cc2c3c1Oc1cc4c(cc1OC)CCN(C)C4Cc1ccc(cc1)Oc1cc(ccc1OC)CC3N(C)CC2 (stereo not drawn)"
test_system = "chronic unpredictable stress (CUS) model in rats"
outcome_measure = "Autonomous movement Distance"
data_value = "11574.92 ± 732.36^##,$$ mm"


Now turn to the next molecule.
So for COc1ccc2cc1Oc1ccc(cc1)CC1c3cc(c(OC)cc3CCN1C)Oc1c(OC)c(OC)c(Cl)c3c1C(C2)N(C)CC3 (stereo not drawn) , the logged Autonomous movement Distance turned out to be 9518.08 ± 704.12^##,$$ mm

* * *

Outcome measure: melting point

Some solved entries appear below for comparison.
[[record]]
molecule = "CCCCOc1c(OC)cc2c3c1Oc1cc4c(cc1OC)CCN(C)C4Cc1ccc(cc1)Oc1cc(ccc1OC)CC3N(C)CC2 (centres unmarked)"
outcome_measure = "melting point"
data_value = "155 to 156 °C"

[[record]]
molecule = "CCCOc1c(OC)cc2c3c1Oc1cc4c(cc1OC)CCN(C)C4Cc1ccc(cc1)Oc1cc(ccc1OC)CC3N(C)CC2 (centres unmarked)"
outcome_measure = "melting point"
data_value = "174.8 to 176.3 °C"


Short answer for CCOc1c(OC)c(Br)c2c3c1Oc1cc4c(cc1OC)CCN(C)C4Cc1ccc(cc1)Oc1cc(c(Br)cc1OC)CC3N(C)CC2 (centres unmarked) : melting point was 186 to 188 °C

Looking up CCOc1c(OC)cc2c3c1Oc1cc4c(cc1OC)CCN(C)C4Cc1ccc(cc1)Oc1cc(ccc1OC)CC3N(C)CC2 (centres unmarked) , I found its melting point recorded as 109.5 to 111 °C

melting point in this record for COc1cc(Br)c2cc1Oc1ccc(cc1)CC1c3cc(c(OC)cc3CCN1C)Oc1c(OC)c(OC)c(Br)c3c1C(C2)N(C)CC3 (centres unmarked) : 187 to 189 °C

Where these numbers come from: patent US9169268B2
